Entries annotated with measured IC50
- measured.on: AXL (Homo sapiens, UniProt P30530)
- Sequence (P30530 26-894): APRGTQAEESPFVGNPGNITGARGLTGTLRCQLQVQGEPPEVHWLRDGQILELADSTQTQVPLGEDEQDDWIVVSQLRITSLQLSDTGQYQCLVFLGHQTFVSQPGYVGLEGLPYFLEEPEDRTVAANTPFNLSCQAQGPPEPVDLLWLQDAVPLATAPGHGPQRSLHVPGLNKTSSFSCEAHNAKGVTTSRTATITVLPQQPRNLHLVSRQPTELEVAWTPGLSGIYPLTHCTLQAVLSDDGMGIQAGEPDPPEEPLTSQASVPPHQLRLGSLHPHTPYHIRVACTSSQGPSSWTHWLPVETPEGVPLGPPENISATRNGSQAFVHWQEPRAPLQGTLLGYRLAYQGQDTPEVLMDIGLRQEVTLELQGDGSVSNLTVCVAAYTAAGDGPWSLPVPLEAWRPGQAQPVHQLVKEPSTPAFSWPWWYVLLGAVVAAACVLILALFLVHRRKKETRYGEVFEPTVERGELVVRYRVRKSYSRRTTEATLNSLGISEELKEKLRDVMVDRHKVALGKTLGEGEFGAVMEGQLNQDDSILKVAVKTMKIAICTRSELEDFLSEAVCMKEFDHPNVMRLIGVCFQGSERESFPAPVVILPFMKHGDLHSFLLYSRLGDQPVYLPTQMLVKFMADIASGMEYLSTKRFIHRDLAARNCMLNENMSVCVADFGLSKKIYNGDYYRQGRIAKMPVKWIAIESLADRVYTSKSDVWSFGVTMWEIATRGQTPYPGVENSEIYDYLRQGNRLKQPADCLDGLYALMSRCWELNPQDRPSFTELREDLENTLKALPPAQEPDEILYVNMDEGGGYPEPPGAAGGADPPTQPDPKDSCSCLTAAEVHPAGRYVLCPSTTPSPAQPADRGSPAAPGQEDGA
- method.notes: Kinase assay at Km ATP (Eurofins Discovery), Axl
- Format: biochemical
- run.conditions: Table 1; Km ATP; mean values

// below: answered molecules
In [3]: df
Out[3]:
                                   molecule                         measured_on  observed_value
0  COc1ccc(-n2ccc3cnc(Nc4ccccc4)nc32)cc1 [Compound 3]  AXL (Homo sapiens, UniProt P30530)          751 nM
1  COc1ccc(-n2ccc3cnc(N4CCN(C)CC4)nc32)cc1 [Compound 5]  AXL (Homo sapiens, UniProt P30530)       > 1000 nM
2  COc1ccc(-n2ccc3cnc(Nc4cccc(-c5ccccc5)c4)nc32)cc1 [Compound 4]  AXL (Homo sapiens, UniProt P30530)       > 3000 nM

The record that follows has no IC50 shown yet.
Q) Need IC50 of COc1ccc(-n2ccc3cnc(Nc4cccc(OC)c4)nc32)cc1 [Compound 2] , thanks.
A) 1240 nM
